TARGET SYSTEM: 20S human immunoproteasome (CT-L activity) (Homo sapiens, UniProt P28062)
RECORDED ENDPOINT: IC50 (µM)

COMPOUND STRING	MEASURED
Cc1ccc(CSC[C@@H](NC(=O)c2cc(-c3ccccc3)nc3ccccc23)C(=O)NCCCN2CCCC2=O)cc1	4.9

====

TARGET SYSTEM: 20S human immunoproteasome (CT-L activity) (Homo sapiens)
Construct: purchased Boston Biochem
ASSAY SUMMARY: Inhibition of CT-L activity of the immunoproteasome (Suc-LLVY-AMC fluorogenic substrate)
Type: biochemical
CONDITION INFO: inhibitor at 5 μM; remaining enzyme activity; read-out: % IP activity (remaining activity of the enzyme)
Where a SMILES comes first, the peptide text is derived from it.
remaining activity at 5 µM strictly less than 70% = condition met. Otherwise condition not met.

COMPOUND	TARGET SYSTEM	LABEL
Cc1ccc(OS(=O)(=O)c2cccc(C(F)(F)F)c2)c(-c2cc(-c3ccccc3)n(CCN[C@@H]3CCNC3)n2)c1	20S human immunoproteasome (CT-L activity) (Homo sapiens)	condition met
CCOc1ccc2[nH]c3c(c2c1)CC(C(=O)NCC1CCCCC1)N[C@@H]3c1ccc(O)c([N+](=O)[O-])c1 (stereo partly shown)	20S human immunoproteasome (CT-L activity) (Homo sapiens)	condition not met
O=C(C[C@@H]1CCN(CC2CC2)C[C@@H]1[C@H]1CC(c2ccccc2Cl)=NO1)NCCc1ccccn1	20S human immunoproteasome (CT-L activity) (Homo sapiens)	condition not met
Cc1ccc(-c2cc(C(=O)NC[C@@H]3CCCO3)c3cc(CNS(=O)(=O)c4cccc(Cl)c4)ccc3n2)o1	20S human immunoproteasome (CT-L activity) (Homo sapiens)	condition met
Cc1ccc(CSC[C@@H](NC(=O)c2cc(-c3ccccc3)nc3ccccc23)C(=O)NCCCN2CCCC2=O)cc1	20S human immunoproteasome (CT-L activity) (Homo sapiens)	condition met
CCN1CCN(CCCN2C(=O)C3[C@H](C(=O)Nc4cc(C)cc(C)c4)[C@@H]4C=C[C@]3(O4)[C@H]2C(=O)N[C@@H]2CCC[C@H](C)[C@H]2C)CC1 (stereo partly shown)	20S human immunoproteasome (CT-L activity) (Homo sapiens)	condition not met
COc1ccccc1C(=O)N/C(=C/c1ccc(Br)cc1)C(=O)Nc1ccc(S(=O)(=O)/N=c2\[nH]ccs2)cc1	20S human immunoproteasome (CT-L activity) (Homo sapiens)	condition not met
CCCCc1ccc2nc(-c3ccc(OC)cc3)cc(C(=O)NC[C@@H](C)C(=O)N3CCC[C@@H]3CO)c2c1	20S human immunoproteasome (CT-L activity) (Homo sapiens)	condition not met
CC[C@H](C(=O)C(=O)NCCCN1CCOCC1)N1CC(C)C[C@@H](NC(=O)OCc2ccccc2)C1=O (stereo partly shown)	20S human immunoproteasome (CT-L activity) (Homo sapiens)	condition not met
N=C(N)NCCC[C@@H]1NC(=O)[C@H](Cc2ccccc2)NC(=O)[C@@H](Cc2ccc(O)cc2)NC(=O)CNC(=O)[C@@H](Cc2c[nH]c3ccccc23)NC1=O [Compound 5] (HELM PEPTIDE1{F.R.[dW].G.[dY]}$PEPTIDE1,PEPTIDE1,1:R1-5:R2$$$V2.0)	20S human immunoproteasome (CT-L activity) (Homo sapiens)	condition not met
NC(=O)CC[C@H](NC(=O)[C@H](Cc1cnc[nH]1)NC(=O)OCC1c2ccccc2-c2ccccc21)C(=O)N1CCC[C@H]1C(=O)O [Compound 7] (HELM PEPTIDE1{[O=C(OCC1c2ccccc2-c2ccccc21)[*:2]].H.Q.P}$$$$V2.0)	20S human immunoproteasome (CT-L activity) (Homo sapiens)	condition met
CCC[C@H]1C[C@H](C(=O)N[C@@H]([C@@H]2O[C@H](SC)[C@@H](O)[C@@H](O)[C@@H]2O)[C@@H](C)O)[N@@H+](C)C1	20S human immunoproteasome (CT-L activity) (Homo sapiens)	condition met
C=C(CCCc1ccccc1)N[C@@H](Cc1ccc(Cl)cc1)C(=O)N[C@H](Cc1ccccc1)C(=O)N[C@H](CCCNC(=N)N)C(=O)N[C@@H](Cc1c[nH]c2ccccc12)C(N)=O	20S human immunoproteasome (CT-L activity) (Homo sapiens)	condition met
COc1ccc(-c2cc(C(=O)N[C@H](CCC(=O)OC3CCCCC3)C(=O)NCCc3ccncc3)c3ccccc3n2)cc1C	20S human immunoproteasome (CT-L activity) (Homo sapiens)	condition not met
O=C(CC[C@H](NC(=O)c1cc(-c2ccoc2)nc2ccccc12)C(=O)NCc1cc(F)ccc1F)OC1CCCCC1	20S human immunoproteasome (CT-L activity) (Homo sapiens)	condition not met
O=C1CN(/N=C/c2ccc(-c3ccc(Cl)cc3)o2)C(=O)N1CCCCN1CCN(C[C@@H](O)c2ccccc2)CC1	20S human immunoproteasome (CT-L activity) (Homo sapiens)	condition not met

====

TARGET SYSTEM: 20S human constitutive proteasome (CT-L activity) (Homo sapiens, UniProt P28074)
Construct: purchased Boston Biochem
ASSAY SUMMARY: Inhibition of CT-L activity of the constitutive proteasome (Suc-LLVY-AMC fluorogenic substrate)
Format: biochemical
CONDITION INFO: inhibitor at 5 μM; remaining enzyme activity; read-out: % CP activity (remaining activity of the enzyme)
Where a SMILES comes first, the peptide text is derived from it.

COMPOUND	remaining activity at 5 µM [%]
Cc1ccc(-c2cc(C(=O)NC[C@@H]3CCCO3)c3cc(CNS(=O)(=O)c4cccc(Cl)c4)ccc3n2)o1 [Compound 1]	80
Cc1ccc(OS(=O)(=O)c2cccc(C(F)(F)F)c2)c(-c2cc(-c3ccccc3)n(CCN[C@@H]3CCNC3)n2)c1 [Compound 16]	50
NC(=O)CC[C@H](NC(=O)[C@H](Cc1cnc[nH]1)NC(=O)OCC1c2ccccc2-c2ccccc21)C(=O)N1CCC[C@H]1C(=O)O [Compound 7] (HELM PEPTIDE1{[O=C(OCC1c2ccccc2-c2ccccc21)[*:2]].H.Q.P}$$$$V2.0)	76
CCN(CC)CCNC(=O)[C@H](Cc1ccc(OCc2ccccc2)cc1)NC(=O)CCC(=O)c1ccccc1 [Compound 14]	76
O=C1CN(/N=C/c2ccc(-c3ccc(Cl)cc3)o2)C(=O)N1CCCCN1CCN(C[C@@H](O)c2ccccc2)CC1 [Compound 18]	84
Cc1cccc(Nc2ccccc2C(=O)N[C@H](CC[S@+](C)[O-])C(=O)N[C@H](C)c2ccc(F)cc2)c1C [Compound 19]	67

====

TARGET SYSTEM: 20S human immunoproteasome (CT-L activity) (Homo sapiens, UniProt P28062)
Construct: purchased Boston Biochem
ASSAY SUMMARY: Inhibition of CT-L activity of the immunoproteasome (Suc-LLVY-AMC fluorogenic substrate)
Type: biochemical
CONDITION INFO: inhibitor at 5 μM; remaining enzyme activity; read-out: % IP activity (remaining activity of the enzyme)
Protocol: The computationally selected 13 compounds were tested for their inhibitory activity against the CT-L activity of the immunoproteasome. […] Specifically, selected compounds were preincubated with 50 ng/well of the immunoproteasome or constitutive proteasome in a 96-well plate at room temperature for 13 min. […] Fluorogenic signals of the free AMC (Ex: 360, Em: 460)^18 were recorded for 90 min. The initial reaction velocities (RFU/min) of each compound were calculated as a percentage of the positive control. […]
Recorded remaining activity at 5 µM values for a group of compounds are listed next.

COMPOUND STRING	TARGET SYSTEM	remaining activity at 5 µM (%)
Cc1cccc(Nc2ccccc2C(=O)N[C@H](CC[S@+](C)[O-])C(=O)N[C@H](C)c2ccc(F)cc2)c1C	20S human immunoproteasome (CT-L activity) (Homo sapiens, UniProt P28062)	69
CCN(CC)CCNC(=O)[C@H](Cc1ccc(OCc2ccccc2)cc1)NC(=O)CCC(=O)c1ccccc1	20S human immunoproteasome (CT-L activity) (Homo sapiens, UniProt P28062)	70
CC[C@@H](O)CNC(=O)C[C@@H]1CCN(Cc2ccc(C)s2)C[C@@H]1[C@H]1CC(c2ccccc2OC)=NO1	20S human immunoproteasome (CT-L activity) (Homo sapiens, UniProt P28062)	69
